Test system: Mycosphaerella graminicola; Anamorph: Septoria tritici; Bayer Code SEPTTR
Assay: Leaf blotch of wheat, foliar fungicide treatment, one day protectant (1DP) or three day curative (3DC)
Assay type: in vivo, Septoria tritici on wheat plants (variety Yuma)
Details: Zymoseptoria tritici, 72 h, three day curative, 25 ppm, rating of percent disease control, read-out: SEPTTR 3DC 25 ppm
reported property: pest or weed control at 25 ppm

Qu. Under Mycosphaerella graminicola; Anamorph: Septoria tritici; Bayer Code SEPTTR: pest or weed control at 25 ppm value of Nc1nc(Oc2cccc([N+](=O)[O-])c2)ncc1F ?
Ans. 0 to 25%

Qu. Under Mycosphaerella graminicola; Anamorph: Septoria tritici; Bayer Code SEPTTR: pest or weed control at 25 ppm value of COc1ccccc1COc1ncc(F)c(NC(=O)c2ccccc2)n1 ?
Ans. 0 to 25%

Qu. Under Mycosphaerella graminicola; Anamorph: Septoria tritici; Bayer Code SEPTTR: pest or weed control at 25 ppm value of OCNc1nc(OCc2ccccc2)ncc1F ?
Ans. 76 to 100%

Qu. Under Mycosphaerella graminicola; Anamorph: Septoria tritici; Bayer Code SEPTTR: pest or weed control at 25 ppm value of COc1cccc(COc2ncc(F)c(N(C)N)n2)c1 ?
Ans. 51 to 75%

Qu. Under Mycosphaerella graminicola; Anamorph: Septoria tritici; Bayer Code SEPTTR: pest or weed control at 25 ppm value of CC[Si](CC)(CC)Nc1nc(OC(C)c2ccc(F)cc2)ncc1F (stereo not drawn) ?
Ans. 76 to 100%

Qu. Under Mycosphaerella graminicola; Anamorph: Septoria tritici; Bayer Code SEPTTR: pest or weed control at 25 ppm value of Fc1ccc(COc2ncc(F)c(N/N=C/c3ccccc3Cl)n2)cc1 ?
Ans. 26 to 50%

Qu. Under Mycosphaerella graminicola; Anamorph: Septoria tritici; Bayer Code SEPTTR: pest or weed control at 25 ppm value of Nc1nc(OCc2cc(F)c(F)c(F)c2F)ncc1F ?
Ans. 76 to 100%

Qu. Under Mycosphaerella graminicola; Anamorph: Septoria tritici; Bayer Code SEPTTR: pest or weed control at 25 ppm value of N#Cc1cccc(COc2ncc(F)c(NC(=O)Nc3ccccc3)n2)c1 ?
Ans. 0 to 25%

Qu. Under Mycosphaerella graminicola; Anamorph: Septoria tritici; Bayer Code SEPTTR: pest or weed control at 25 ppm value of Nc1nc(OCc2cnc(Cl)c(Cl)c2)ncc1F ?
Ans. 76 to 100%

Qu. Under Mycosphaerella graminicola; Anamorph: Septoria tritici; Bayer Code SEPTTR: pest or weed control at 25 ppm value of CCOCCOc1cccc(COc2ncc(F)c(NSc3ccccc3[N+](=O)[O-])n2)c1 ?
Ans. 51 to 75%

Qu. Under Mycosphaerella graminicola; Anamorph: Septoria tritici; Bayer Code SEPTTR: pest or weed control at 25 ppm value of CCc1ccccc1NNc1nc(OCc2ccc(F)cc2)ncc1F ?
Ans. 0 to 25%

Qu. Under Mycosphaerella graminicola; Anamorph: Septoria tritici; Bayer Code SEPTTR: pest or weed control at 25 ppm value of Nc1nc(OCc2ccc(Cl)nc2)ncc1F ?
Ans. 76 to 100%

Qu. Under Mycosphaerella graminicola; Anamorph: Septoria tritici; Bayer Code SEPTTR: pest or weed control at 25 ppm value of O=C(Nc1nc(OCc2ccc(F)cc2)ncc1F)c1cccc(CBr)c1 ?
Ans. 0 to 25%

Qu. Under Mycosphaerella graminicola; Anamorph: Septoria tritici; Bayer Code SEPTTR: pest or weed control at 25 ppm value of Nc1nc(OCc2cnccn2)ncc1F ?
Ans. 51 to 75%

Qu. Under Mycosphaerella graminicola; Anamorph: Septoria tritici; Bayer Code SEPTTR: pest or weed control at 25 ppm value of COc1cc(COc2ncc(F)c(N)n2)cc(OC)c1 ?
Ans. 51 to 75%

Qu. Under Mycosphaerella graminicola; Anamorph: Septoria tritici; Bayer Code SEPTTR: pest or weed control at 25 ppm value of Nc1nc(OCCCc2ccccn2)ncc1F ?
Ans. 0 to 25%

Qu. Under Mycosphaerella graminicola; Anamorph: Septoria tritici; Bayer Code SEPTTR: pest or weed control at 25 ppm value of COc1ccc(Oc2ncc(F)c(N)n2)cc1 ?
Ans. 0 to 25%

Qu. Under Mycosphaerella graminicola; Anamorph: Septoria tritici; Bayer Code SEPTTR: pest or weed control at 25 ppm value of CCOC(=O)C(=O)Nc1nc(OCc2ccc(C)cc2)ncc1F ?
Ans. 76 to 100%

Qu. Under Mycosphaerella graminicola; Anamorph: Septoria tritici; Bayer Code SEPTTR: pest or weed control at 25 ppm value of Fc1ccccc1NC(=S)Nc1nc(OCc2cccs2)ncc1F ?
Ans. 26 to 50%

Qu. Under Mycosphaerella graminicola; Anamorph: Septoria tritici; Bayer Code SEPTTR: pest or weed control at 25 ppm value of Nc1nc(OCc2ccc(CO)cc2)ncc1F ?
Ans. 76 to 100%

Qu. Under Mycosphaerella graminicola; Anamorph: Septoria tritici; Bayer Code SEPTTR: pest or weed control at 25 ppm value of Nc1nc(OCc2cc(Cl)nc(Cl)c2)ncc1F ?
Ans. 76 to 100%

Qu. Under Mycosphaerella graminicola; Anamorph: Septoria tritici; Bayer Code SEPTTR: pest or weed control at 25 ppm value of Cc1ccc(COc2ncc(F)c(-n3ccnc3)n2)cc1 ?
Ans. 76 to 100%

Qu. Under Mycosphaerella graminicola; Anamorph: Septoria tritici; Bayer Code SEPTTR: pest or weed control at 25 ppm value of Nc1nc(OCc2nccs2)ncc1F ?
Ans. 51 to 75%

Qu. Under Mycosphaerella graminicola; Anamorph: Septoria tritici; Bayer Code SEPTTR: pest or weed control at 25 ppm value of C=CCOC(=O)Oc1ncc(F)c(/N=C/N(C)C)n1 ?
Ans. 76 to 100%

Qu. Under Mycosphaerella graminicola; Anamorph: Septoria tritici; Bayer Code SEPTTR: pest or weed control at 25 ppm value of Nc1nc(OCc2ccc(SC(F)(F)F)cc2)ncc1F ?
Ans. 76 to 100%

Qu. Under Mycosphaerella graminicola; Anamorph: Septoria tritici; Bayer Code SEPTTR: pest or weed control at 25 ppm value of COc1ccc(COc2ncc(F)c(N)n2)c(Cl)c1OC ?
Ans. 76 to 100%

Qu. Under Mycosphaerella graminicola; Anamorph: Septoria tritici; Bayer Code SEPTTR: pest or weed control at 25 ppm value of COc1cccc(COc2ncc(F)c(N/N=C\c3ncc[nH]3)n2)c1 ?
Ans. 0 to 25%

Qu. Under Mycosphaerella graminicola; Anamorph: Septoria tritici; Bayer Code SEPTTR: pest or weed control at 25 ppm value of COc1cccc(COc2ncc(F)c(/N=C/N(C)C)n2)c1 ?
Ans. 76 to 100%

Qu. Under Mycosphaerella graminicola; Anamorph: Septoria tritici; Bayer Code SEPTTR: pest or weed control at 25 ppm value of COc1ccc(CCOc2ncc(F)c(N)n2)cc1 ?
Ans. 0 to 25%

Qu. Under Mycosphaerella graminicola; Anamorph: Septoria tritici; Bayer Code SEPTTR: pest or weed control at 25 ppm value of CN(C)/C=N/c1nc(OC(=O)c2ccc(Cl)cc2)ncc1F ?
Ans. 76 to 100%

These data points were gathered from patent US9204653B2.
